- Test details: LCMS analysis of the reaction of the dyes with H2O2 in PBS
- Assay type: physicochemical
- Experimental context: 1 hour incubation with 100 µM H2O2, PBS
Attribute measured: dye molecules converted into the phenol (%)
Numbers only, in %.

[ask] What does the data say about its dye molecules converted into the phenol? Entry: `COc1ccc2nc(-c3ccc(B4OCC(C)(C)CO4)cc3)sc2c1`
[reply] 90

[ask] What does the data say about its dye molecules converted into the phenol? Entry: `COc1ccc2c(c1)sc(-c1ccc(B3OC(C)(C)C(C)(C)O3)cc1)[n+]2C.F[B-](F)(F)F`
[reply] 73

[ask] What does the data say about its dye molecules converted into the phenol? Entry: `COc1ccc2c(c1)sc(-c1ccc(B3OCC(C)(C)CO3)cc1)[n+]2C.F[B-](F)(F)F`
[reply] 88

***
[ask] What does the data say about its dye molecules converted into the phenol? Entry: `COc1ccc2nc(-c3ccc(B4OC(C)(C)C(C)(C)O4)cc3)sc2c1`
[reply] 100

----------
- Test details: LCMS analysis of the reaction of the dyes with H2O2 in PBS
- Type: physicochemical
- Experimental context: 30 µM in PBS pH 7.4, time point 0 minutes, no H2O2, UV 254 nm
Attribute measured: Hydrolyzed (boronic acid derivative) Rel. Area (%)
Give bare numbers, in %.

Below are worked cases with known answers.
[ask] What does the data say about its Hydrolyzed (boronic acid derivative) Rel. Area? Entry: `COc1ccc2c(c1)sc(-c1ccc(B3OCC(C)(C)CO3)cc1)[n+]2C.F[B-](F)(F)F`
[reply] 100

[ask] What does the data say about its Hydrolyzed (boronic acid derivative) Rel. Area? Entry: `COc1ccc2nc(-c3ccc(B4OC(C)(C)C(C)(C)O4)cc3)sc2c1`
[reply] 65

[ask] What does the data say about its Hydrolyzed (boronic acid derivative) Rel. Area? Entry: `COc1ccc2nc(-c3ccc(B4OCC(C)(C)CO4)cc3)sc2c1`
[reply] 100

***
[ask] What does the data say about its Hydrolyzed (boronic acid derivative) Rel. Area? Entry: `COc1ccc2c(c1)sc(-c1ccc(B3OC(C)(C)C(C)(C)O3)cc1)[n+]2C.F[B-](F)(F)F`
[reply] 100

----------
- Test details: LCMS analysis of the reaction of the dyes with H2O2 in PBS
- Format: physicochemical
- Experimental context: 30 µM in PBS pH 7.4, 60 minutes with 100 μM H2O2, UV 254 nm
- Protocol: Next, the change in bulk fluorescence emission was assessed upon addition of H2O2 at a concentration realistic for cellular oxidative stress (100 µM). […] Furthermore, the kinetics could be followed, with all fluorescence traces increasing at varying rates in a linear regime over a 5 h period (figure 2c). […] These measurements confirmed that the change in fluorescence intensity arose from the conversion of the boronic ester into the hydroxyl functionality. […]
For each entry below, report its Oxidized (phenol derivative) Rel. Area value.
One number for each entry, in %.

[ask] What does the data say about its Oxidized (phenol derivative) Rel. Area? Entry: `COc1ccc2c(c1)sc(-c1ccc(B3OC(C)(C)C(C)(C)O3)cc1)[n+]2C.F[B-](F)(F)F`
[reply] 64

[ask] What does the data say about its Oxidized (phenol derivative) Rel. Area? Entry: `COc1ccc2nc(-c3ccc(B4OCC(C)(C)CO4)cc3)sc2c1`
[reply] 90

[ask] What does the data say about its Oxidized (phenol derivative) Rel. Area? Entry: `COc1ccc2c(c1)sc(-c1ccc(B3OCC(C)(C)CO3)cc1)[n+]2C.F[B-](F)(F)F`
[reply] 70

Next compound, Oxidized (phenol derivative) Rel. Area to be filled in.
[ask] What does the data say about its Oxidized (phenol derivative) Rel. Area? Entry: `COc1ccc2nc(-c3ccc(B4OC(C)(C)C(C)(C)O4)cc3)sc2c1`
[reply] 100
